Entry source: patent US12624024B2

Target: EP2 receptor (Homo sapiens)
Construct: expressed in transfected cells; host or cells: CHO-K1 cells (ATCC), transient transfection with FuGENE 6
Sequence (P43116 whole entry): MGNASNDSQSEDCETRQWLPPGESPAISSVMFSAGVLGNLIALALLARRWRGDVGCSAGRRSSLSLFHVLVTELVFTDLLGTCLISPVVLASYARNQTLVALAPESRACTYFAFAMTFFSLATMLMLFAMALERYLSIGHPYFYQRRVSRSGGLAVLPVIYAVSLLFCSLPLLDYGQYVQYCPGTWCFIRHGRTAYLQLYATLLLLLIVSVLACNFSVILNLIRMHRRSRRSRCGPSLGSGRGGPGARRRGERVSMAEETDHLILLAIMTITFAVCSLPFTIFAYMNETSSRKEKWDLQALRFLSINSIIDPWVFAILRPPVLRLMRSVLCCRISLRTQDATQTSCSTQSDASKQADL
Assay: EP2 Potency Assay (cAMP TR-FRET, CHO-K1 cells transfected with EP2 receptor, PGE2 at EC80)
Assay type: cell-based
Settings: CHO-K1 cells expressing EP2, prostaglandin E2 at EC80, read-out: EP2 Potency (IC50 category)
Experimental: Compound potency was measured using a cAMP TR-FRET assay. After 6 hours incubation, the cell media was replaced with F12 medium supplemented with 10% FBS and 100 U/ml Pen-Strep. […] A dose-response curve was prepared by plotting percent inhibition for each compound concentration, and then IC50 was calculated by fitting a curve to the plotted values and extrapolating the IC50 concentration.
pIC50: −log10 of the molar value.
quantity_kind: pIC50

Use the examples below as a reference point.
Cc1cc2cc(F)ccc2n1-c1cc(Cl)c2c(c1)CN(Cc1cnc(=O)[nH]c1)CCO2 : 5.30 to 6.00
Cc1cn(-c2cc(Cl)c3c(c2)CN(Cc2cnc(=O)[nH]c2)CCO3)c2ccc(F)cc12 : 6.30 to 7.00
COc1ncc(CN2CCOc3c(Cl)cc(-c4ncc5cc(Cl)ccn45)cc3C2)cn1 : 6.00 to 6.30
O=c1ncc(CN2CCOc3c(Cl)cc(-n4ccc5c(F)c(F)ccc54)cc3C2)c[nH]1 : > 7.00
Fc1ccc2c(ccn2-c2cc(Cl)c3c(c2)CN(Cc2cscn2)CCO3)c1 : < 5.30
C[C@@H]1COc2c(Cl)cc(-n3ccc4cc(F)ccc43)cc2CN1Cc1cnc(=O)[nH]c1 : 6.30 to 7.00

# input Which measured pIC50 belongs to COc1ncc(CN2CCOc3c(Cl)cc(-c4coc5ccccc45)cc3C2)cn1 , tested on EP2 receptor (Homo sapiens)?
# output 5.30 to 6.00

# input pIC50 of O=c1ncc(CN2CCOc3c(Cl)cc(N4CCCc5cc(F)ccc54)cc3C2)c[nH]1 on EP2 receptor (Homo sapiens)?
# output 5.30 to 6.00

====

Below: a set of entries, each annotated with reported IC50.
Biological target: EP2 receptor (Homo sapiens)
Assay: EP2 Potency Assay (cAMP TR-FRET, CHO-K1 cells transfected with EP2 receptor, PGE2 at EC80)
Settings: CHO-K1 cells expressing EP2, prostaglandin E2 at EC80, read-out: EP2 Potency (IC50 category)

The examples below pair each entry with its known result.
O=c1[nH]ccc(CN2CCOc3c(Cl)cc(-n4ccc5cc(F)ccc54)cc3C2)c1C(F)(F)F : > 5000 nM
Fc1ccc2c(ccn2-c2cc(Cl)c3c(c2)CN(Cc2cncnc2)C2(CC2)CO3)c1 : > 5000 nM
Cc1c(-n2ccc3cc(F)ccc32)cc(Cl)c2c1CN(Cc1cc[nH]c(=O)c1)CCO2 : 1000 to 5000 nM
O=C(O)c1cc(CN2CCOc3c(Cl)cc(-n4ccc5cc(F)ccc54)cc3C2)ccn1 : 100 to 500 nM
Nc1nc(CN2CCOc3c(Cl)cc(-n4ccc5cc(F)ccc54)cc3C2)ns1 : > 5000 nM

# input Tell me the measured IC50 of COc1ncc(CN2CCOc3c(Cl)cc(-n4ccc5cc(Cl)ncc54)cc3C2)cn1 , please.
# output > 5000 nM

# input Which IC50 is listed for COc1cc(CN2CCOc3c(Cl)cc(-n4ccc5cc(F)ccc54)cc32)ccn1 ?
# output > 5000 nM

# input // query IC50 value for entry COc1ncc(CN2CCOc3c(Cl)cc(-c4cccc5c4CCCC5)cc3C2)cn1
# output > 5000 nM

# input Looking for the measured IC50 of C[C@@H]1COc2c(Cl)cc(-n3ccc4cc(F)ccc43)cc2CN1Cc1cnc(N)nc1 , can you help?
# output < 100 nM
